Target: Serotonin 5-HT3 (Homo sapiens, UniProt P46098)
Sequence (P46098 24-478): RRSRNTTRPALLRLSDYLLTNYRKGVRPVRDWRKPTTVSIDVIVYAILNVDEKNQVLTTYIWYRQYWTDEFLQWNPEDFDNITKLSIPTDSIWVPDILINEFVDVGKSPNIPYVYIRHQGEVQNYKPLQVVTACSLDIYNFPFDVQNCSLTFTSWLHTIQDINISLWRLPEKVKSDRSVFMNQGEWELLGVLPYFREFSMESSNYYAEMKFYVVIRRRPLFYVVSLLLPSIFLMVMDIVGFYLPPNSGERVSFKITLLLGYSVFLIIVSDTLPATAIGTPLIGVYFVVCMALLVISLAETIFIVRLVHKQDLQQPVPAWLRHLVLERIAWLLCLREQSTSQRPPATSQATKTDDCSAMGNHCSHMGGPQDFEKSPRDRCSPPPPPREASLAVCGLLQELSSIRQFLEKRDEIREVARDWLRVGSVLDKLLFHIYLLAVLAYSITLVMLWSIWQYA
Endpoint name: pKi
API: returns pKi as number; meaning -log10 of concentration in mol/L.

Identify measured pKi corresponding to "O=c1ccc2ccc(O[C@@H]3C[C@H]4CC[C@@H](C3)N4)cc2o1"
5.98

----------
assay: Exposure and tissue distribution after 14 days repeat dosing, mouse; format: in vivo; details: mouse, brain, po; Female mice, 90 mg/kg p.o. 14 days, 2 h post last dose; read-out: Brain/plasma ratio
Endpoint name: Kp at 2 h
Reply with the value as a number alone.

Identify measured Kp at 2 h corresponding to "O=c1ccc2ccc(O[C@@H]3C[C@H]4CC[C@@H](C3)N4)cc2o1"
4

----------
assay: Linearity after single p.o. dose in mouse; assay type: in vivo; settings: plasma, po; female NMRI mouse, 60 mg/kg p.o.
Endpoint name: Cmax (ng/mL)
API: value field is a number in ng/mL; no unit string.

Identify measured Cmax corresponding to O=c1ccc2ccc(O[C@@H]3C[C@H]4CC[C@@H](C3)N4)cc2o1 [Compound (I)]
4150

----------
target: DA transporter (Rattus norvegicus); test: ^3H-uptake rat, DA transporter
Sequence (P23977 whole entry): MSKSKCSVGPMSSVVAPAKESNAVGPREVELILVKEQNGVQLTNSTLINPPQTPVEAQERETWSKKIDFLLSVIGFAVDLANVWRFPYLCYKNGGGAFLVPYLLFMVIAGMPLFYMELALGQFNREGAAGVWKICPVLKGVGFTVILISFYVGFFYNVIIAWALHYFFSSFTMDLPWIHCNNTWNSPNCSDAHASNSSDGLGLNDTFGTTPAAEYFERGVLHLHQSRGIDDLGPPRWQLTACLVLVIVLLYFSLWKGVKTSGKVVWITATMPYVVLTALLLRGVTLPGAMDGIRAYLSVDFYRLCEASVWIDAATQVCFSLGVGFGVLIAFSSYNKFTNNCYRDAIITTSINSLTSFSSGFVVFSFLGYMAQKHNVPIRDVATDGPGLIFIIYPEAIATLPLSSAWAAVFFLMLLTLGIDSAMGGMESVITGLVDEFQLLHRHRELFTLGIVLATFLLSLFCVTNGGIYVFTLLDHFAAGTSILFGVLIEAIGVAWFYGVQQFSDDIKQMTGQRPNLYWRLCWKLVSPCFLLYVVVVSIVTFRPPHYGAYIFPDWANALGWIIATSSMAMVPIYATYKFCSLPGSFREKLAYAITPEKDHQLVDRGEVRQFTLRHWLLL
Endpoint name: IC50

Identify measured IC50 corresponding to "O=c1ccc2ccc(O[C@@H]3C[C@H]4CC[C@@H](C3)N4)cc2o1"
0.26 µM

----------
assay: Bioavailability study in dog; assay type: in vivo; settings: plasma; Male beagle dog
Endpoint name: clearance (mL/min/kg)
API: value field is a number in mL/min/kg; no unit string.

Identify measured clearance corresponding to O=c1ccc2ccc(O[C@@H]3C[C@H]4CC[C@@H](C3)N4)cc2o1 [Compound (I)]
25

----------
target: 5-HT transporter (Homo sapiens); assay: ^3H-uptake human, 5-HT transporter
Sequence (P31645 whole entry): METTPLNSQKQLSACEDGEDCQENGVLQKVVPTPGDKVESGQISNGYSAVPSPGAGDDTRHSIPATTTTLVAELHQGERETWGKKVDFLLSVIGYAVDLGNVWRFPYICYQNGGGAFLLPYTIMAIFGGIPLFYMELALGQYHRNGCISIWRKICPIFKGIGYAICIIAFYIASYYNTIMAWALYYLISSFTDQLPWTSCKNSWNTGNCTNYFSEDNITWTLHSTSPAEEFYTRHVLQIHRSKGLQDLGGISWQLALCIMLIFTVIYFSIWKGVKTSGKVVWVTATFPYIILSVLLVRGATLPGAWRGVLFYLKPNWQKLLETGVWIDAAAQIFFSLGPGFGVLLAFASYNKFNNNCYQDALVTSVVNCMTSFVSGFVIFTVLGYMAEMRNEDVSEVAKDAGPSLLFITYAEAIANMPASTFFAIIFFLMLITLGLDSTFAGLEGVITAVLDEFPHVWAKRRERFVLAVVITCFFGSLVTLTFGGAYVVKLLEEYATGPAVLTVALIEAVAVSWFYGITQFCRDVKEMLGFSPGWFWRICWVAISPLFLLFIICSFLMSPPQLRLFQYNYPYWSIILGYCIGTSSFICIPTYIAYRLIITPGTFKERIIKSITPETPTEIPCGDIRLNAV
Endpoint name: IC50 (nM)
API: value field is a number in nM; no unit string.

Give the observed IC50 of "O=c1ccc2ccc(O[C@@H]3C[C@H]4CC[C@@H](C3)N4)cc2o1" for 5-HT transporter (Homo sapiens).
1.8

----------
assay: Exposure and tissue distribution after 14 days repeat dosing, rat; format: in vivo; conditions: Wistar, rat, liver, sc; Female rats, 15 mg/kg s.c. 14 days, 2 h post last dose; read-out: Liver concentration
Endpoint name: concentration at 2 h (ng/g)
API: value field is a number in ng/g; no unit string.

Identify measured concentration at 2 h corresponding to "O=c1ccc2ccc(O[C@@H]3C[C@H]4CC[C@@H](C3)N4)cc2o1"
1520

----------
assay: Exposure and tissue distribution after 14 days repeat dosing, mouse; format: in vivo; settings: NMRI, mouse, liver, po; Male mice, 60 mg/kg p.o. 14 days, 2 h post last dose; read-out: Liver concentration
Endpoint name: concentration at 2 h (ng/g)
API: value field is a number in ng/g; no unit string.

Identify measured concentration at 2 h corresponding to O=c1ccc2ccc(O[C@@H]3C[C@H]4CC[C@@H](C3)N4)cc2o1 [Compound (I)]
17700

----------
target: NA transporter (Rattus norvegicus)
Sequence (Q63380 1-617): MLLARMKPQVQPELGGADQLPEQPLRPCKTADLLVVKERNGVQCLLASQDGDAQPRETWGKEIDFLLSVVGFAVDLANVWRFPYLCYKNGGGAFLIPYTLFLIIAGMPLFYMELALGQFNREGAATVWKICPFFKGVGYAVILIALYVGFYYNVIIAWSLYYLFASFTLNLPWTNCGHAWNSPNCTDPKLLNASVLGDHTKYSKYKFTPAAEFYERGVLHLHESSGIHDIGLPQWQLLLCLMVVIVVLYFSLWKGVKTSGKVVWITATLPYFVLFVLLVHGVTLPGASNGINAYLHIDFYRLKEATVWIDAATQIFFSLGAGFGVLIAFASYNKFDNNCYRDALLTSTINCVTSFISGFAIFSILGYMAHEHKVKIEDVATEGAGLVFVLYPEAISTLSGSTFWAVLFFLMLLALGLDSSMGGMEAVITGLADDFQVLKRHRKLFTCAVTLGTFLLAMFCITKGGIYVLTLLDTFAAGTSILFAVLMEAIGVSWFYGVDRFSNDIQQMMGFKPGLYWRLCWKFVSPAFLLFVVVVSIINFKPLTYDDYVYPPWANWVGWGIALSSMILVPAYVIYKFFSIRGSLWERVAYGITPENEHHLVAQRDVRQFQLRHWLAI
Endpoint name: pKi
API: returns pKi as number; meaning -log10 of concentration in mol/L.

Give the observed pKi of O=c1ccc2ccc(O[C@@H]3C[C@H]4CC[C@@H](C3)N4)cc2o1 [Compound (I)] for NA transporter (Rattus norvegicus).
5.89

----------
assay: Exposure and tissue distribution after 14 days repeat dosing, rat; format: in vivo; conditions: Wistar, rat, liver, sc; Male rats, 15 mg/kg s.c. 14 days, 2 h post last dose; read-out: Liver concentration
Endpoint name: concentration at 2 h (ng/g)
API: value field is a number in ng/g; no unit string.

Identify measured concentration at 2 h corresponding to O=c1ccc2ccc(O[C@@H]3C[C@H]4CC[C@@H](C3)N4)cc2o1 [Compound (I)]
921

----------
Test system: plasma protein
Assay: Plasma protein binding by equilibrium dialysis, rat
Format: in vitro ADME
Details: 271 ng/ml
Method: The plasma protein binding was tested in rat, mouse, dog and human plasma by equilibrium dialysis. The plasma protein binding of this compound is remarkably low (Table 24).
Endpoint name: fraction unbound at 271 ng/ml

Give the observed fraction unbound at 271 ng/ml of "O=c1ccc2ccc(O[C@@H]3C[C@H]4CC[C@@H](C3)N4)cc2o1" for plasma protein.
0.65

----------
test: Exposure and tissue distribution after 14 days repeat dosing, rat; assay type: in vivo; conditions: Wistar, rat, in vivo, sc; Female rats, 5 mg/kg s.c. 14 days, 2 h post last dose; read-out: Liver/plasma ratio
Endpoint name: Kp at 2 h
Reply with the value as a number alone.

Identify measured Kp at 2 h corresponding to "O=c1ccc2ccc(O[C@@H]3C[C@H]4CC[C@@H](C3)N4)cc2o1"
5

----------
assay: Exposure and tissue distribution after 14 days repeat dosing, rat; assay type: in vivo; conditions: Wistar, rat, in vivo, sc; Female rats, 15 mg/kg s.c. 14 days, 2 h post last dose; read-out: Liver/plasma ratio
Endpoint name: Kp at 2 h
Reply with the value as a number alone.

Identify measured Kp at 2 h corresponding to O=c1ccc2ccc(O[C@@H]3C[C@H]4CC[C@@H](C3)N4)cc2o1 [Compound (I)]
5

----------
Test: Exposure and tissue distribution after 14 days repeat dosing, rat
Type: in vivo
Conditions: Wistar, rat, brain, sc; Male rats, 25 mg/kg s.c. 14 days, 2 h post last dose; read-out: Brain concentration
Experimental: Single time point data is available from two 14 days repeat dose studies in mice and rats dosed to both sexes. The three low doses were performed together as one study and the top dose was performed at another occasion as a satellite study. Samples were taken 2 h post last dose. Plasma, brain and liver were taken 2 h post last dose.
Endpoint name: concentration at 2 h (ng/g)
API: value field is a number in ng/g; no unit string.

Identify measured concentration at 2 h corresponding to O=c1ccc2ccc(O[C@@H]3C[C@H]4CC[C@@H](C3)N4)cc2o1 [Compound (I)]
2580

----------
assay: Linearity after single s.c. dose in rat; format: in vivo; details: Wistar, plasma, sc; rat, 10 mg/kg s.c., compared to 10 mg/kg i.v. in same vehicle
Endpoint name: bioavailability (%)
API: value field is a number in %; no unit string.

Identify measured bioavailability corresponding to "O=c1ccc2ccc(O[C@@H]3C[C@H]4CC[C@@H](C3)N4)cc2o1"
108

----------
experiment: Exposure and tissue distribution after 14 days repeat dosing, mouse; assay type: in vivo; settings: NMRI, mouse, brain, po; Female mice, 30 mg/kg p.o. 14 days, 2 h post last dose; read-out: Brain concentration
Endpoint name: concentration at 2 h (ng/g)
API: value field is a number in ng/g; no unit string.

Identify measured concentration at 2 h corresponding to O=c1ccc2ccc(O[C@@H]3C[C@H]4CC[C@@H](C3)N4)cc2o1 [Compound (I)]
7070

----------
target: hERG channels (Homo sapiens, UniProt Q12809)
Sequence (Q12809 whole entry): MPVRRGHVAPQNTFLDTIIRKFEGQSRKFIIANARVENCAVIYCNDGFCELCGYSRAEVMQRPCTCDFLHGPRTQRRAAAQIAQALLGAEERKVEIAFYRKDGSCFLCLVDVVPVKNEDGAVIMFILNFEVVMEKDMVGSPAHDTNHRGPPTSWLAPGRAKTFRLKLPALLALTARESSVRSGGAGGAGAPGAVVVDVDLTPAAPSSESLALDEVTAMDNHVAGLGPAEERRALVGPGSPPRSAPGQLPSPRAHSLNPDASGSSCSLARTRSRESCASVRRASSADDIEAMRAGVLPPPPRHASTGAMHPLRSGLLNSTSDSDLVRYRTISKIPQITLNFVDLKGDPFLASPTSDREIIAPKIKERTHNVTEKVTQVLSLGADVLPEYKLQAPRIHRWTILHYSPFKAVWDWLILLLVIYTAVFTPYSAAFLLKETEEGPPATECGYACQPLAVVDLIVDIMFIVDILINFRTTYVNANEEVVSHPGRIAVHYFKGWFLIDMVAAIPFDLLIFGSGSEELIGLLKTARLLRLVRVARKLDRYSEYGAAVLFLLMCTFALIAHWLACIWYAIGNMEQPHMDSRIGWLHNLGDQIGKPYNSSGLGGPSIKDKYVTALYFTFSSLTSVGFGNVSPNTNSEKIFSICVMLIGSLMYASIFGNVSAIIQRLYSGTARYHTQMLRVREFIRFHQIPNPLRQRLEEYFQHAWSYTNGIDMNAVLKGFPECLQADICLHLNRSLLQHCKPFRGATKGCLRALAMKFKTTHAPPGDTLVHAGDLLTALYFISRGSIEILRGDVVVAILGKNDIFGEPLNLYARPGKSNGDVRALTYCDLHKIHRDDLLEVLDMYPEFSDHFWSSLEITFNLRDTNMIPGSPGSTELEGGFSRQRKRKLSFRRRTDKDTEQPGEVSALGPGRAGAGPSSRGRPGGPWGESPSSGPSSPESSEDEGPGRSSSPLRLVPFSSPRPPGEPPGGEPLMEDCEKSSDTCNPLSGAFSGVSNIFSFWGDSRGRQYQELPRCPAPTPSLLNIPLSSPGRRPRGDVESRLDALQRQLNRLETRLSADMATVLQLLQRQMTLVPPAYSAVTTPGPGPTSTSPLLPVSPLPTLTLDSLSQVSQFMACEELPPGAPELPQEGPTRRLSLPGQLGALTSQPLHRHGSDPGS
pKi: −log10 of the molar value.
Endpoint name: pKi

Give the observed pKi of O=c1ccc2ccc(O[C@@H]3C[C@H]4CC[C@@H](C3)N4)cc2o1 [Compound (I)] for hERG channels (Homo sapiens, UniProt Q12809).
< 5.00

----------
Experiment: Exposure and tissue distribution after 14 days repeat dosing, rat
Format: in vivo
Settings: Wistar, rat, liver, sc; Male rats, 10 mg/kg s.c. 14 days, 2 h post last dose; read-out: Liver concentration
Method: Single time point data is available from two 14 days repeat dose studies in mice and rats dosed to both sexes. The three low doses were performed together as one study and the top dose was performed at another occasion as a satellite study. Samples were taken 2 h post last dose. Plasma, brain and liver were taken 2 h post last dose.
Endpoint name: concentration at 2 h (ng/g)
API: value field is a number in ng/g; no unit string.

Identify measured concentration at 2 h corresponding to O=c1ccc2ccc(O[C@@H]3C[C@H]4CC[C@@H](C3)N4)cc2o1 [Compound (I)]
737

----------
test: Exposure and tissue distribution after 14 days repeat dosing, mouse; format: in vivo; conditions: NMRI, mouse, brain, po; Male mice, 60 mg/kg p.o. 14 days, 2 h post last dose; read-out: Brain/plasma ratio
Endpoint name: Kp at 2 h
Reply with the value as a number alone.

Identify measured Kp at 2 h corresponding to "O=c1ccc2ccc(O[C@@H]3C[C@H]4CC[C@@H](C3)N4)cc2o1"
6
